subjectOfTest: UniProt P29275
Sequence (P29275 whole entry): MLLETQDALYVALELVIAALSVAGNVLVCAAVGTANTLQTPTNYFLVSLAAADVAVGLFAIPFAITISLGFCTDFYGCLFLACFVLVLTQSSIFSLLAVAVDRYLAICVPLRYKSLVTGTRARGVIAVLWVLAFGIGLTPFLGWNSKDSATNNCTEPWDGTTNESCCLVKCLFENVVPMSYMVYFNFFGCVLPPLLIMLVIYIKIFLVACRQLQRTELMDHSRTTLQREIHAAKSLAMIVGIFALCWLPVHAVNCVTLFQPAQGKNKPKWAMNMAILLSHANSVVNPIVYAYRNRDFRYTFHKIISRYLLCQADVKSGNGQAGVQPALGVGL
protocolDescription: Adenosine receptor activity assay (Table 1), A2B activity
Type: biochemical
conditionContext: A2A activity to A2B activity (A2A/A2B)
propertyMeasured: Ratio
In your answer, state the number alone without any accompanying words.

A selection of reference data follows.
INSERT INTO results (compound, subjectoftest, reading) VALUES
  ('C[C@H](Nc1nc(C(=O)N2CCC(C(=O)O)C2)c2sccc2n1)c1ccccn1 (stereo partly shown)', 'UniProt P29275', 13.21),
  ('C[C@H](Nc1nc(C(=O)N2CC[C@H](F)C2)c2sccc2n1)c1cncc(F)c1', 'UniProt P29275', 43.99),
  ('C[C@H](Nc1nc(C(=O)NCC(F)(F)F)c2sccc2n1)c1cncc(F)c1', 'UniProt P29275', 9.48);

Query: Ratio of `COc1ccc(CNC(=O)c2nc(N[C@@H](C)c3ccccn3)nc3ccsc23)cn1` on UniProt P29275?
Response: 1.67

----------
subjectOfTest: UniProt:P29274
Sequence (P29274 whole entry): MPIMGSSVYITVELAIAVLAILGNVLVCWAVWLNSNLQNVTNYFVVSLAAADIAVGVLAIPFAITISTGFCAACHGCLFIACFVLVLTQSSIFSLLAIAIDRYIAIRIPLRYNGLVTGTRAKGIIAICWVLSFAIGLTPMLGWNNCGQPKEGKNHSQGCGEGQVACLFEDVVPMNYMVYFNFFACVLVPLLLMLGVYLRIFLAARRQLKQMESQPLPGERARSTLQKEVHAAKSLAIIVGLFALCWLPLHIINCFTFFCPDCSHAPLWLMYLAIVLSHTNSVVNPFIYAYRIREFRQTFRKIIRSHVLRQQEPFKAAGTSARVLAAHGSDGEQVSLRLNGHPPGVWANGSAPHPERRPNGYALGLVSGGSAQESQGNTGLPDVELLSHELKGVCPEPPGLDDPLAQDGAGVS
protocolDescription: Adenosine receptor activity assay (Table 1), A2A activity
Format: biochemical
conditionContext: read-out: Ave A2A cAMP IC50
# maps each entry to its IC50

Here's what some known entries look like.
INSERT INTO measurements (molecule, reading) VALUES
  ('C[C@H]1CCN(C(=O)c2nc(N[C@@H](C)c3ccccn3)nc3ccsc23)C1 [Example Z87]', '100 to 500 nM'),
  ('C[C@H](Nc1nc(C(=O)NC[C@@H](C)O)c2sccc2n1)c1cncc(Cl)c1 [Example Z293]', '100 to 500 nM'),
  ('COc1cccc(CNC(=O)c2nc(N[C@@H](C)c3cncc(F)c3)nc3cc(C)sc23)n1 [Example Z374]', '100 to 500 nM');

From here, focus on the item given below.
Query: Sample Cc1cc2nc(N[C@@H](C)c3cncc(F)c3)nc(C(=O)N3CC[C@@H](N)C3)c2s1 [Example Z413] — what was its IC50?
Response: > 500 nM

----------
protocolDescription: Hepatocyte (Hep) intrinsic clearance, human
Assay type: in vitro ADME
conditionContext: hepatocytes
propertyMeasured: hepatocyte CLint

Recorded results for 5 compounds are shown here.
INSERT INTO results (molecularstring, reading) VALUES
  ('C[C@H]1CCN(C(=O)c2nc(N[C@@H](C)c3cccnc3)nc3ccsc23)C1', '24.5 µL/min/1e6 cells'),
  ('CO[C@H]1CCN(C(=O)c2nc(N[C@@H](C)c3cccnc3)nc3ccsc23)C1', '12.3 µL/min/1e6 cells'),
  ('O=C(c1nc(NCc2cncc(F)c2)nc2ccsc12)N1CC[C@@H](O)C1', '7.1 µL/min/1e6 cells'),
  ('Cc1ncccc1CNc1nc(C(=O)N2CCCC2)c2sccc2n1', '7.19 µL/min/1e6 cells'),
  ('C[C@H](Nc1nc(C(=O)N2CCC(F)(F)C2)c2sccc2n1)c1ccccn1', '16.8 µL/min/1e6 cells');

Query: Endpoint output: hepatocyte CLint of `C[C@H](Nc1nc(C(=O)N2CCCC2)c2sccc2n1)c1ccccn1` . Value?
Response: 6.53 µL/min/1e6 cells

Query: Also `C[C@H](Nc1nc(C(=O)N2CC[C@H](O)C2)c2sccc2n1)c1cccc(F)c1` , if possible.
Response: 9.59 µL/min/1e6 cells

Query: Another compound to look at: `C[C@H](Nc1nc(C(=O)N2CCCC2)c2sccc2n1)c1cncc(F)c1`
Response: 17.9 µL/min/1e6 cells
